tested.system: hAT1R (Homo sapiens, UniProt P30556)
assay.overview: FLIPR calcium flux assay, Part II: antagonist activity against Angiotensin II
Assay type: cell-based
condition.details: read-out: hAT1R Antagonist IC50 Ave
Residues, ends and D or L forms follow the SMILES beside them.
Each entry below lists one item and its recorded pIC50 value.
Please keep in mind that pIC50 is minus log10 of the molar concentration; only the number is needed.

With hAT1R (Homo sapiens, UniProt P30556) as the test system, CNCC(=O)N[C@@H](CCCNC(=N)N)C(=O)N[C@H](C(=O)N[C@@H](Cc1ccc(O)cc1)C(=O)N[C@H](C(=O)N[C@@H](Cc1c[nH]cn1)C(=O)N1CCC[C@H]1C(=O)N[C@H](Cc1cccc2ccccc12)C(=O)O)C(C)C)C(C)C [Compound 1, Sar-Arg-Val-Tyr-Val-His-Pro-(D-1Nal)-OH] (HELM PEPTIDE1{[Sar].R.V.Y.V.H.P.[O=C(O)[C@@H](Cc1cccc2ccccc12)N[*:1]]}$$$$V2.0) showed pIC50 of 7.97

Entry CNCC(=O)N[C@@H](CCCNC(=N)N)C(=O)N[C@H](C(=O)N[C@@H](Cc1ccc(O)cc1)C(=O)N[C@@H](Cc1cscn1)C(=O)N[C@@H](Cc1c[nH]cn1)C(=O)N1CCC[C@H]1C(=O)N[C@H](Cc1ccccc1Cl)C(=O)O)C(C)C [Compound 24] (HELM PEPTIDE1{[Sar].R.V.Y.[O=C([C@H](Cc1cscn1)N[*:1])[*:2]].H.P.[O=C(O)[C@@H](Cc1ccccc1Cl)N[*:1]]}$$$$V2.0) , tested on hAT1R (Homo sapiens, UniProt P30556), has a reported pIC50 of 8.15

====

tested.system: hAT1R (Homo sapiens, UniProt P30556)
assay.overview: FLIPR calcium flux assay, Part II: antagonist activity against Angiotensin II
Format: cell-based
condition.details: read-out: hAT1R Antagonist IC50 Ave
Starred links: 1 amine or outer side, 2 acyl side, 3 side chain; linkers in the order of their positions; H or OH if unused. Non-standard residues stand in square brackets, D forms with d. Residues, ends and D or L forms follow the SMILES beside them. X1 = O=C(CN(C[C@H](O)[C@@H](O)[C@H](O)[C@H](O)CO)[*:1])[*:2]; dPhe(2-Me) = Cc1ccccc1C[C@@H](N)C(=O)O; Chg = N[C@H](C(=O)O)C1CCCCC1
parameter: pIC50
The meaning of pIC50 here: minus log10 of the concentration in molar units.

CNCC(=O)N[C@@H](CCCNC(=N)N)C(=O)N[C@H](C(=O)N[C@@H](Cc1ccc(O)cc1)C(=O)N[C@H](C(=O)N[C@@H](Cc1c[nH]cn1)C(=O)N1CCC[C@H]1C(=O)N[C@H](Cc1csc2ccccc12)C(=O)O)C(C)C)C(C)C [Compound 10] (HELM PEPTIDE1{[Sar].R.V.Y.V.H.P.[O=C(O)[C@@H](Cc1csc2ccccc12)N[*:1]]}$$$$V2.0) : 8.02
CNCC(=O)N[C@@H](CCCNC(=N)N)C(=O)N[C@H](C(=O)N[C@@H](Cc1ccc(O)cc1)C(=O)N[C@H](C(=O)N[C@@H](Cc1c[nH]cn1)C(=O)N1CCC[C@H]1C(=O)N[C@H](Cc1ccccc1C(F)(F)F)C(=O)O)C1CCCCC1)C(C)C [Compound 26] (HELM PEPTIDE1{[Sar].R.V.Y.[O=C([C@@H](N[*:1])C1CCCCC1)[*:2]].H.P.[O=C(O)[C@@H](Cc1ccccc1C(F)(F)F)N[*:1]]}$$$$V2.0) : 7.48
Cc1ccccc1C[C@@H](NC(=O)[C@@H]1CCCN1C(=O)[C@H](Cc1c[nH]cn1)NC(=O)[C@@H](NC(=O)[C@H](Cc1ccc(O)cc1)NC(=O)[C@@H](NC(=O)[C@H](CCCNC(=N)N)NC(=O)CNC[C@H](O)[C@@H](O)[C@H](O)[C@H](O)CO)C(C)C)C1CCCCC1)C(=O)O [Compound 46] (H-[X1]RVY[Chg]HP[dPhe(2-Me)]-OH) : 7.65

So, CNCC(=O)N[C@@H](CCCNC(=N)N)C(=O)N[C@H](C(=O)N[C@@H](Cc1ccc(O)cc1)C(=O)N[C@H](C(=O)N[C@@H](Cc1c[nH]cn1)C(=O)N1CCC[C@H]1C(=O)N[C@H](Cc1ccc(Cl)cc1Cl)C(=O)O)C(C)C)C(C)C [Compound 7] (HELM PEPTIDE1{[Sar].R.V.Y.V.H.P.[O=C(O)[C@@H](Cc1ccc(Cl)cc1Cl)N[*:1]]}$$$$V2.0) ? Its pIC50 was 8.19

// pIC50 lookup, compound = CNCC(=O)N[C@@H](CCCNC(=N)N)C(=O)N[C@H](C(=O)N[C@@H](Cc1ccc(O)cc1)C(=O)N[C@H](C(=O)N[C@@H](Cc1c[nH]cn1)C(=O)N1CCC[C@H]1C(=O)N[C@H](Cc1ccccc1Cl)C(=O)O)C1CCCCC1)C(C)C [Compound 19] (HELM PEPTIDE1{[Sar].R.V.Y.[O=C([C@@H](N[*:1])C1CCCCC1)[*:2]].H.P.[O=C(O)[C@@H](Cc1ccccc1Cl)N[*:1]]}$$$$V2.0) , result: 7.85

pIC50 reading for CNCC(=O)N[C@@H](CCCNC(=N)N)C(=O)N[C@H](C(=O)N[C@@H](Cc1ccc(O)cc1)C(=O)N[C@H](C(=O)N[C@@H](Cc1c[nH]cn1)C(=O)N1CCC[C@H]1C(=O)N[C@H](Cc1ccccc1C#N)C(=O)O)C(C)C)C(C)C [Compound 5] (HELM PEPTIDE1{[Sar].R.V.Y.V.H.P.[N#Cc1ccccc1C[C@@H](N[*:1])C(=O)O]}$$$$V2.0) : 7.22

====

tested.system: hAT1R (Homo sapiens, UniProt P30556)
Sequence (P30556 1-359): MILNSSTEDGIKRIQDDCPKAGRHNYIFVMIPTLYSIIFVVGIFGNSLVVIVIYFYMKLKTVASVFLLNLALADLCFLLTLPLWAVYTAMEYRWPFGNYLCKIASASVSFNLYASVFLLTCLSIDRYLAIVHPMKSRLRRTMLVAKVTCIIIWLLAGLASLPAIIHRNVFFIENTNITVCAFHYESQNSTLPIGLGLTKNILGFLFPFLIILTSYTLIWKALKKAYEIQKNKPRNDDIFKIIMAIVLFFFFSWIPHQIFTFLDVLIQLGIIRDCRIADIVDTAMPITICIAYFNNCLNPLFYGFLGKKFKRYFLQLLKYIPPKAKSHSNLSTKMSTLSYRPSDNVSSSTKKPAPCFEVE
assay.overview: FLIPR calcium flux assay, Part II: antagonist activity against Angiotensin II
Type: cell-based
condition.details: read-out: hAT1R Antagonist Efficacy Antag (%) Ave
Residues, ends and D or L forms follow the SMILES beside them.
Listed next: entries and their corresponding Emax.
Express the result in % but write the number alone.

Worked set:
CNCC(=O)N[C@@H](CCCNC(=N)N)C(=O)N[C@H](C(=O)N[C@@H](Cc1ccc(O)cc1)C(=O)N[C@H](C(=O)N[C@@H](Cc1c[nH]cn1)C(=O)N1CCC[C@H]1C(=O)N[C@H](Cc1ccccc1-c1ccccc1)C(=O)O)C(C)C)C(C)C [Compound 6] (HELM PEPTIDE1{[Sar].R.V.Y.V.H.P.[O=C(O)[C@@H](Cc1ccccc1-c1ccccc1)N[*:1]]}$$$$V2.0) : 99
CNCC(=O)N[C@@H](CCCNC(=N)N)C(=O)N[C@H](C(=O)N[C@@H](Cc1ccc(O)cc1)C(=O)N[C@H](C(=O)N[C@@H](Cc1c[nH]cn1)C(=O)N1CCC[C@H]1C(=O)N[C@H](Cc1ccccc1C)C(=O)O)C(C)C)C(C)C [Compound 9] (HELM PEPTIDE1{[Sar].R.V.Y.V.H.P.[Cc1ccccc1C[C@@H](N[*:1])C(=O)O]}$$$$V2.0) : 99

Alright, here's another molecule for you.
Sample CNCC(=O)N[C@@H](CCCNC(=N)N)C(=O)N[C@H](C(=O)N[C@@H](Cc1ccc(O)cc1)C(=O)N[C@H](C(=O)N[C@@H](Cc1c[nH]cn1)C(=O)N1CCC[C@H]1C(=O)N[C@H](Cc1ccccc1-c1ccccc1)C(=O)O)C1CCCCC1)C(C)C [Compound 36] (HELM PEPTIDE1{[Sar].R.V.Y.[O=C([C@@H](N[*:1])C1CCCCC1)[*:2]].H.P.[O=C(O)[C@@H](Cc1ccccc1-c1ccccc1)N[*:1]]}$$$$V2.0) ; Emax observed: 100

====

Reported pIC50 values for a set of molecules
tested.system: hAT1R (Homo sapiens, UniProt P30556)
Sequence (P30556 1-359): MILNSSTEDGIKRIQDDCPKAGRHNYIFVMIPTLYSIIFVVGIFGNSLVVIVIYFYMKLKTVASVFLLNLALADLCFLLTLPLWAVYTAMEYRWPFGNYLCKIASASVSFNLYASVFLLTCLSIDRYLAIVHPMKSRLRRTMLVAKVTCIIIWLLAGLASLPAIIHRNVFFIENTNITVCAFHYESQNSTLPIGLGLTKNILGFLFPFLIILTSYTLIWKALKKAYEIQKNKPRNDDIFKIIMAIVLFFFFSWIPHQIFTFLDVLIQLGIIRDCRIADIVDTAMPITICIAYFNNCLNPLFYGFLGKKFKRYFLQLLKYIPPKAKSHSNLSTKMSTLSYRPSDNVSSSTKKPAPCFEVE
assay.overview: FLIPR calcium flux assay, Part II: antagonist activity against Angiotensin II
Assay type: cell-based
condition.details: read-out: hAT1R Antagonist IC50 Ave
Residues, ends and D or L forms follow the SMILES beside them.
// pIC50: -log10(molar conc.)

Consider the worked cases shown below.
CNCC(=O)N[C@@H](CCCNC(=N)N)C(=O)N[C@H](C(=O)N[C@@H](Cc1ccc(O)cc1)C(=O)N[C@@H](CC1CCCCC1)C(=O)N[C@@H](Cc1c[nH]cn1)C(=O)N1CCC[C@H]1C(=O)N[C@H](Cc1cccc2ccccc12)C(=O)O)C(C)C [Compound 14, Sar-Arg-Val-Tyr-Cha-His-Pro-(D-1Nal)-OH] (HELM PEPTIDE1{[Sar].R.V.Y.[Cha].H.P.[O=C(O)[C@@H](Cc1cccc2ccccc12)N[*:1]]}$$$$V2.0) : 8.10
Cc1ccccc1C[C@@H](NC(=O)[C@@H]1CCCN1C(=O)[C@H](Cc1c[nH]cn1)NC(=O)[C@@H](NC(=O)[C@H](Cc1ccc(O)cc1)NC(=O)[C@@H](NC(=O)[C@H](CCCNC(=N)N)NC(=O)CNC[C@H](O)[C@@H](O)[C@H](O)[C@H](O)CO)C(C)C)C(C)C)C(=O)O [Compound 45] (HELM PEPTIDE1{[O=C(CNC[C@H](O)[C@@H](O)[C@H](O)[C@H](O)CO)[*:2]].R.V.Y.V.H.P.[Cc1ccccc1C[C@@H](N[*:1])C(=O)O]}$$$$V2.0) : 7.73

Query CNCC(=O)N[C@@H](CCCNC(=N)N)C(=O)N[C@H](C(=O)N[C@@H](Cc1ccc(O)cc1)C(=O)N[C@H](C(=O)N[C@@H](Cc1c[nH]cn1)C(=O)N1CCC[C@H]1C(=O)N[C@H](Cc1ccccc1Cl)C(=O)O)C1CCCC1)C(C)C [Compound 18] (HELM PEPTIDE1{[Sar].R.V.Y.[O=C([C@@H](N[*:1])C1CCCC1)[*:2]].H.P.[O=C(O)[C@@H](Cc1ccccc1Cl)N[*:1]]}$$$$V2.0) yields pIC50 of 8.00
